# MEASUREMENT DESCRIPTION: binders of probe aFSTL3 on microarray, primary screen, stem cell growth factor project, biochemical, small-molecule microarray, fluorescence 635/667 (AID 1064);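 also: measures binding of the biotinylated anti-FSTL3 antibody to printed compounds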
# CONDITION NOTES: higher = more signal
Class (required): determined from composite z-score; valid ranges are Low: < -0.2; Medium: ≥ -0.2 and < 0.7; High: ≥ 0.7

1. CC(C)(C)OC(=O)CC[C@@]12N=C(c3ccc(OCCCO)cc3)O[C@@H]1c1ccccc1CN(Cc1ccccc1)C2=O = Medium
2. C=C(COC)C(=O)CC[C@H](OC(=O)c1ccccc1-c1ccccc1C(=O)O)c1ccccc1OCCO = Medium
3. [N-]=[N+]=NCc1ccccc1C[C@@]1(C(=O)O)N=C(c2ccc(OCCCO)cc2)O[C@@H]1c1ccccc1 = Medium
4. COC(=O)C(CC#Cc1ccc2c(c1)[C@]1(C(=O)N2)[C@H](c2ccccc2OCCO)N2[C@H](c3ccccc3)[C@H](c3ccccc3)OC(=O)[C@H]2[C@@H]1C(=O)N1CCCCCCC1)C(=O)OC = High
5. C=CCNC(=O)[C@@H]1[C@H]2C(=O)O[C@H](c3ccccc3)[C@H](c3ccccc3)N2[C@H](c2ccc(O)cc2)[C@@]12C(=O)Nc1ccccc12 = Medium
6. COc1ccc([Si](C)(C)[C@H]2[C@H](CC(=O)N(CCO)Cc3ccccc3)O[C@@]3(C(=O)N(Cc4ccc(N5CCOC5=O)cc4)c4ccccc43)[C@@H]2C)cc1 = Medium
7. [N-]=[N+]=NCc1ccccc1C[C@]1(C(=O)NCc2ccccc2)N=C(c2ccc(OCCCO)cc2)O[C@H]1c1ccccc1 = High
8. C=C(C(=O)CC[C@@H](OC(C)=O)c1ccccc1OCCO)C(C)C = Low
9. COCCOC(=O)N1C(=O)[C@@]2(c3cc(C#CC4(O)CCCCCC4)ccc31)[C@H](c1ccc(O)cc1)N1[C@H](c3ccccc3)[C@H](c3ccccc3)OC(=O)[C@H]1[C@@H]2C(N)=O = Medium
10. CC(C)C[C@@H]1NC(=O)[C@@]23C(=O)N[C@@H](Cc4ccccc4)C2[C@H](C)[C@@]2(C)O[C@H]2C3/C=C/C/C=C\CNC(=O)[C@H](Cc2ccccc2)NC1=O (some centres not stated) = Low
11. COc1ccc([Si](C)(C)[C@@H]2[C@@H](CCn3cc(CCO)nn3)O[C@]3(C(=O)N(Cc4ccc(N5C(=O)c6cccc7cccc5c67)cc4)c4ccccc43)[C@H]2C)cc1 = Low
12. COCCOC(=O)N1C(=O)[C@@]2(c3cc(C#CCNC(N)=O)ccc31)[C@H](C(=O)NC[C@H](O)c1ccccc1)[C@H]1C(=O)O[C@H](c3ccccc3)[C@H](c3ccccc3)N1[C@@H]2c1ccc(O)cc1 = Medium
13. C=C(C(=O)CC[C@H](OC(C)=O)c1ccc(CO)o1)C(C)C = Low
14. COCCOC(=O)N1C(=O)[C@@]2(c3cc(C#CCCO)ccc31)[C@H](c1ccccc1OCCO)N1[C@H](c3ccccc3)[C@H](c3ccccc3)OC(=O)[C@H]1[C@@H]2C(=O)NC[C@H](O)c1ccccc1 = Medium
15. [N-]=[N+]=Nc1ccccc1[C@H]1OC(c2ccc(OCCCO)cc2)=N[C@@]1(Cc1ccccc1)C(N)=O = High
16. C=CCN1C(=O)[C@@]2(O[C@@H](CCn3cc(CCO)nn3)[C@H]([Si](C)(C)c3ccc(OC)cc3)[C@H]2C)c2cc(N3C(=O)c4cccc5cccc3c45)ccc21 = Low
17. C=CC[C@@]1(C(=O)NCc2ccccc2)N=C(c2ccc(OCCCO)cc2)O[C@@H]1c1ccccc1 = High
18. O=C1c2ccccc2[C@@]2(Cc3ccccc3N(CC(F)(F)F)C2=O)[C@H](c2ccc(CO)cc2)N1Cc1ccccc1C(F)(F)F = High
19. COc1ccc(C(=O)Nc2cccc(CN3C(=O)[C@@]4(O[C@@H](CCO)[C@H]([Si](C)(C)c5ccc(OC)cc5)[C@H]4C)c4ccccc43)c2)cc1 = Medium
20. CCOC(=O)C[C@H]1[C@H](OC(=O)c2cc3ccccc3oc2=O)[C@@H](NC(=O)c2ccccc2)c2cc(OCCCO)ccc2N1C(=O)Cc1ccc(OC)cc1 = Low
21. COC(=O)[C@@]1(CCC(=O)OC(C)(C)C)COC(c2ccc(OCCCO)cc2)=N1 = High
22. CC(=O)NCCCC[C@@H]1NC(=O)[C@@H]2C[C@H](C(=O)O)[C@H](c3cccc(OCCO)c3)N2C1=O = Medium
23. CC(C)C(=C=CC[C@H](O)c1ccc(OCCO)cc1)C[C@H](O)COCc1ccccc1 = Low
24. NCCCCCNC(=O)[C@H]1C[C@H]2C(=O)NCC(=O)N2[C@H]1c1ccc(O)cc1 = Medium
25. CC(C)C(CO)N1C(=O)[C@@H]2[C@H]3C(=O)OCC=C[C@H]3OC23C=CCN(Cc2ccccc2)C(=O)[C@@H]13 (some centres not stated) = Low
26. NCCCCCCNC(=O)[C@@H]1C[C@@H]2C(=O)N[C@@H](Cc3ccccc3)C(=O)N2[C@@H]1c1ccc(O)cc1 = High
